- assayed_system: Serine/threonine-protein kinase Chk2 (Homo sapiens)
- Sequence (O96017 whole entry): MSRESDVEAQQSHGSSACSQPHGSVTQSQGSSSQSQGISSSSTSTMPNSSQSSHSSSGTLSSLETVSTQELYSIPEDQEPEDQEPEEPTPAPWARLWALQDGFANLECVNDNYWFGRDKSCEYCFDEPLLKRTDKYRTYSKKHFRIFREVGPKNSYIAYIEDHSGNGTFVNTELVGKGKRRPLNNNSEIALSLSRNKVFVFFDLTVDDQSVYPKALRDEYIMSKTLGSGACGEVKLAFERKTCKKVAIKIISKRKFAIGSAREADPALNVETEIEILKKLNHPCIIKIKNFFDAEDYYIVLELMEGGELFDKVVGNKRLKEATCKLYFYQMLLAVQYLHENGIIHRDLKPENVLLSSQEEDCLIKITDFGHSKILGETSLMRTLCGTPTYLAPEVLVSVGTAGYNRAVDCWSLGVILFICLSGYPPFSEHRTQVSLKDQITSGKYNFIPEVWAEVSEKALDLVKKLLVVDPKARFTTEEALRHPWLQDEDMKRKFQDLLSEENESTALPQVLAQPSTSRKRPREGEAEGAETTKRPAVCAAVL
pIC50 values for the compounds below.
Quick note: pIC50 means taking -log10 of the concentration in moles per liter.

chem_smiles | pIC50
CNC1=NC(=O)/C(=C2\CCNC(=O)c3[nH]c(-c4ccccc4)cc32)N1 | 6.77

Okay, now this compound:
Prompt: Fill in pIC50 for O=C1N=C(NCc2ccccc2)N/C1=C1/CCNC(=O)c2[nH]c(-c3ccccc3)cc21 tested with Serine/threonine-protein kinase Chk2 (Homo sapiens).
Completion: 7.55

====

- Organism: Homo sapiens
- test_method_notes: Selectivity ratio of IC50 for human CHK1 to IC50 for human CHK2
readout_label: Ratio IC50

chem_smiles | Ratio IC50
CCOC(=O)CCNC1=NC(=O)/C(=C2\CCNC(=O)c3[nH]c(-c4ccccc4)cc32)N1 | > 36

Prompt: Provide only the value of recorded Ratio IC50 for CCCNC1=NC(=O)/C(=C2\CCNC(=O)c3[nH]c(-c4ccccc4)cc32)N1
Completion: > 64

Prompt: Provide only the value of recorded Ratio IC50 for COc1ccc(CNC2=NC(=O)/C(=C3\CCNC(=O)c4[nH]c(-c5ccccc5)cc43)N2)cc1
Completion: > 17
